Cited source for all entries: ChEMBL document CHEMBL1201862

Tested on: LXFL 529
ASSAY_DETAILS: NCI tumour cell line growth inhibition, 48 h
Active and inactive are the calls of the source. Cut-off read from the data, not from the text of the source: active = GI50 up to about 1.1 µM and inactive = higher.
Thanks in advance; please answer with one of these: TRUE (active), FALSE (inactive)

Solved cases (3 shown):
CC1=C[C@H]2C[C@@]3(C)O[C@@H]([C@]4(C)CC[C@H]([C@@H](C)C(=O)O)OO4)CC3C(C)(C)[C@H]2CC1 (some centres undefined) | TRUE
Cc1cn(C2CC3C(COCN3O)O2)c(=O)[nH]c1=O (centres undefined) | FALSE
O=C1N2Cc3c4ccc5c3CN3C(=O)N6Cc7c(ccc(c7CN1C6(c1ccccc1)C23c1ccccc1)OCCOCCOc1cc(Br)c(Br)cc1OCCOCCO4)OCCOCCOc1cc(Br)c(Br)cc1OCCOCCO5 (centres undefined) | FALSE

Just curious, what result did CC(C)C(NCc1c2ccccc2[n+](C)c2ccccc12)C(=O)O (centres undefined) get here?
FALSE
